# target: CD33 (Sino Biological, Cat #12238-H08H) (UniProt P20138 18-259)
# Sequence (P20138 18-259 limits assumed): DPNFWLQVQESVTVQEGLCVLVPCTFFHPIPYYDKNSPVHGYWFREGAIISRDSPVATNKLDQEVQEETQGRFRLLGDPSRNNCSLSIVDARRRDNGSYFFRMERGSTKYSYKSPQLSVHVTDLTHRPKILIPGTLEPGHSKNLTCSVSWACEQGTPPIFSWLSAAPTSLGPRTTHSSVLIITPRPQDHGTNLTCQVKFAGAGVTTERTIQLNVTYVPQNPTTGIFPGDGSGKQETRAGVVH
# assay_details: BLI, IgG captured on anti-human Fc sensor, 50 nM CD33, pH 7.4 vs pH 5.4

binder	binding result
MYT1348 (antibody, V domains shown, IgG; vadastuximab VH variant #14 (P53H)) VH: QVQLVQSGAEVKKPGASVKVSCKASGYTFTNYDINWVRQAPGQGLEWIGWIYHGDGSTKYNEKFKAKATLTADTSTSTAYMELRSLRSDDTAVYYCASGYEDAMDYWGQGTTVTVSS VL: DIQMTQSPSSLSASVGDRVTINCKASQDINSYLSWFQQKPGKAPKTLIYRANRLVDGVPSRFSGSGSGQDYTLTISSLQPEDFATYYCLQYDEFPLTFGGGTKVEIK	binds
MYT1370 (antibody, V domains shown, IgG; vadastuximab VH variant #36 (D105H)) VH: QVQLVQSGAEVKKPGASVKVSCKASGYTFTNYDINWVRQAPGQGLEWIGWIYPGDGSTKYNEKFKAKATLTADTSTSTAYMELRSLRSDDTAVYYCASGYEDAMHYWGQGTTVTVSS VL: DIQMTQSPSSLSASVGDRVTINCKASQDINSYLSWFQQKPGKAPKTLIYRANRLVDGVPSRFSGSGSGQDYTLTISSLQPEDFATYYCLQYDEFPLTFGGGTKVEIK	binds
MYT1363 (antibody, V domains shown, IgG; vadastuximab VH variant #29 (S98H)) VH: QVQLVQSGAEVKKPGASVKVSCKASGYTFTNYDINWVRQAPGQGLEWIGWIYPGDGSTKYNEKFKAKATLTADTSTSTAYMELRSLRSDDTAVYYCAHGYEDAMDYWGQGTTVTVSS VL: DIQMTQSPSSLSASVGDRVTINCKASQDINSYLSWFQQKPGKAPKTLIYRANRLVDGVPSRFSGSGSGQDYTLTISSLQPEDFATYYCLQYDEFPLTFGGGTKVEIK	binds
